# reported relative viability; entries follow
Test system: SW1353
Experiment: relative viability vs DMSO control (72 h) (fraction); higher = more viable cells
Conditions: 0.00152 µM

SMILES STR | relative viability
COCc1c(-c2cc3cc(C)cc(OC)c3s2)c2c(N)ncnn2c1CN1CCNC(=O)C1 | 0.977
Cc1nc(-c2cn3c(n2)-c2ccc(-c4cnn(C(C)(C)C(N)=O)c4)cc2OCC3)n(C(C)C)n1 | 0.953
C=CC(=O)Nc1cccc(Oc2nc(Nc3ccc(N4CCN(C)CC4)cc3)nc3ccsc23)c1 | 1.04
C=CC(=O)N1CCC[C@@H](n2nc(-c3ccc(Oc4ccccc4)cc3)c3c(N)ncnc32)C1 | 1

###

This section presents compounds with their documented relative viability values.
Tested on: HS729
Experiment: relative viability vs DMSO control (72 h) (fraction); higher = more viable cells
Conditions: 10 µM

COMPOUND | TARGET | relative viability
CCCS(=O)(=O)Nc1ccc(F)c(C(=O)c2c[nH]c3ncc(-c4ccc(Cl)cc4)cc23)c1F [Vemurafenib] | HS729 | 0.73
CO[C@H]1C[C@@H]2CC[C@@H](C)[C@@](O)(O2)C(=O)C(=O)N2CCCC[C@H]2C(=O)O[C@H]([C@H](C)C[C@@H]2CC[C@@H](OP(C)(C)=O)[C@H](OC)C2)CC(=O)[C@H](C)/C=C(\C)[C@@H](O)[C@@H](OC)C(=O)[C@H](C)C[C@H](C)/C=C/C=C/C=C/1C [Ridaforolimus] | HS729 | 0.763
O=C(Cc1ccc(-c2ccc(OCCN3CCOCC3)cc2)cn1)NCc1ccccc1 [KX2-391] | HS729 | 0.475
Cc1cc(Nc2ncnc3ccc(NC4=NC(C)(C)CO4)cc23)ccc1Oc1ccn2ncnc2c1 [Tucatinib] | HS729 | 0.909
C=CC(=O)Nc1cccc(Oc2nc(Nc3ccc(N4CCN(C)CC4)cc3)nc3ccsc23)c1 [Olmutinib] | HS729 | 0.713
CC(=O)Nc1cccc(-n2c(=O)n(C3CC3)c(=O)c3c(Nc4ccc(I)cc4F)n(C)c(=O)c(C)c32)c1 [Trametinib] | HS729 | 0.611
COc1cc2c(Oc3ccc4[nH]c(C)cc4c3F)ncnc2cc1OCCCN1CCCC1 [Cediranib] | HS729 | 0.83
C=CC(=O)N1CCC[C@@H](n2nc(-c3ccc(Oc4ccccc4)cc3)c3c(N)ncnc32)C1 [Ibrutinib] | HS729 | 0.762
Cc1nc(NC(=O)N2CCC[C@H]2C(N)=O)sc1-c1ccnc(C(C)(C)C(F)(F)F)c1 [Alpelisib] | HS729 | 0.445
Cc1ccc(NC(=O)c2ccc(CN3CCN(C)CC3)cc2)cc1Nc1nc(-c2cccnc2)cs1 [Masitinib] | HS729 | 0.139
COc1cc2nccc(Oc3ccc(NC(=O)Nc4cc(C)on4)c(Cl)c3)c2cc1OC [Tivozanib] | HS729 | 0.722
O=C(Nc1cnn2ccc(N3CCC[C@@H]3c3cc(F)ccc3F)nc12)N1CC[C@H](O)C1 [Larotrectinib] | HS729 | 0.849
Cc1nc(-c2cn3c(n2)-c2ccc(-c4cnn(C(C)(C)C(N)=O)c4)cc2OCC3)n(C(C)C)n1 [Taselisib] | HS729 | 0.429
CC[C@H](Nc1ncnc2[nH]cnc12)c1nc2cccc(F)c2c(=O)n1-c1ccccc1 [Idelalisib] | HS729 | 0.704
CCc1cc2c(cc1N1CCC(N3CCOCC3)CC1)C(C)(C)c1[nH]c3cc(C#N)ccc3c1C2=O [Alectinib] | HS729 | 1.02
CNC(=O)c1cc(Oc2ccc(NC(=O)Nc3ccc(Cl)c(C(F)(F)F)c3)c(F)c2)ccn1 [Regorafenib] | HS729 | 0.651
COCc1c(-c2cc3cc(C)cc(OC)c3s2)c2c(N)ncnn2c1CN1CCNC(=O)C1 [Rogaratinib] | HS729 | 0.348
N#CC[C@H](C1CCCC1)n1cc(-c2ncnc3[nH]ccc23)cn1 [Ruxolitinib] | HS729 | 0.764
CN1CCN(c2ccc3nc(-c4c(N)c5c(F)cccc5[nH]c4=O)[nH]c3c2)CC1 [Dovitinib] | HS729 | 0.264
CN1CCC(COc2cnc(-c3cccc(Cn4nc(-c5cccc(C#N)c5)ccc4=O)c3)nc2)CC1 [Tepotinib] | HS729 | 0.829
CCN1CCN(Cc2ccc(Nc3ncc(F)c(-c4cc(F)c5nc(C)n(C(C)C)c5c4)n3)nc2)CC1 [Abemaciclib] | HS729 | 0.885
COc1cc2/c(=N/c3ccc(Br)cc3F)nc[nH]c2cc1OCC1CCN(C)CC1 [Vandetanib] | HS729 | 0.028
Cn1cnc2c(F)c(Nc3ccc(Br)cc3F)c(C(=O)NOCCO)cc21 [Binimetinib] | HS729 | 0.811
